Items are presented alongside their recorded In vitro activity relative to native peptide (%) vs. GIP.
Target: T1, human GIP receptor (human, UniProt P48546 22-466)
T1 sequence (looked up): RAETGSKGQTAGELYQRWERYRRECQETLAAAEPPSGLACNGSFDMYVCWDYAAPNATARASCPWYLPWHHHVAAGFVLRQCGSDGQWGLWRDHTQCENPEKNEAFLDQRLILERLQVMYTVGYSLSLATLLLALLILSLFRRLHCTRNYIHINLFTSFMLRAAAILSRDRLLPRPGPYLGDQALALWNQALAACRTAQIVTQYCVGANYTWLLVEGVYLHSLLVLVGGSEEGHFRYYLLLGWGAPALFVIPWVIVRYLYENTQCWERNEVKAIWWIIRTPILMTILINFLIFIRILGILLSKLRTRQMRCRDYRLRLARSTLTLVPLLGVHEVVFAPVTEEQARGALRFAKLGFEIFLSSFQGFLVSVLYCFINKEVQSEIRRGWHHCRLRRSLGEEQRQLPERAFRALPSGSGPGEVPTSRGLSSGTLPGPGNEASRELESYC
Assay: cell-based or functional assay
Bridges are numbered along the chain shown (N, C = ends). Where no end group is shown, it is not given here. [ ]: non-standard residue; d: D form. Aib = CC(C)(N)C(=O)O
Measure: In vitro activity relative to native peptide (%) vs. GIP

[[record]]
binder = "H[Aib]QGTFTSDCSKYLDERAAQDFVQWLLDGGPSSGAPPPS [triple agonist of SEQ ID NO: 25]"
measured = "< 0.1%"

[[record]]
binder = "H[Aib]QGTFTSDKSKYLDECAAQDFVQWLLDGGPSSGAPPPS [triple agonist of SEQ ID NO: 41]"
measured = "< 0.1%"

[[record]]
binder = "H[Aib]QGTFTSDYSKYLDEKRQKEFVQWLLDTKC (bridge 16-20) [triple agonist of SEQ ID NO: 78]"
measured = "0.12%"

